- experiment-summary: Stability in rat plasma
- run-parameters: 37° C., 120 minutes
Reported Percentage of the compound remaining in plasma by item:
readout-name: Percentage of the compound remaining in plasma (%)

{"compound": "CCC(NC(=O)OCOc1ccc([N+](=O)[O-])c2cccnc12)C(=O)OC (centres unmarked) [Compound 54]", "data-value": 0.0}
{"compound": "CCC(CC)C(=O)OC(C)Oc1ccc([N+](=O)[O-])c2cccnc12 (centres unmarked) [Compound 51]", "data-value": 35.3}
{"compound": "CCC(C)C(C(=O)OC)N(C)C(=O)OCOc1ccc([N+](=O)[O-])c2cccnc12 (centres unmarked) [Compound 56]", "data-value": 0.0}
{"compound": "CN(CC(O)CO)C(=O)OCOc1ccc([N+](=O)[O-])c2cccnc12 (centres unmarked) [Compound 52]", "data-value": 71.3}
{"compound": "CCC(C)C(NC(=O)OCOc1ccc([N+](=O)[O-])c2cccnc12)C(=O)OC (centres unmarked) [Compound 55]", "data-value": 0.3}
{"compound": "CN1CCN(C(=O)OCOc2ccc([N+](=O)[O-])c3cccnc23)CC1 [Compound 6]", "data-value": 89.4}
{"compound": "C[C@@H]1CN(C(=O)OCOc2ccc([N+](=O)[O-])c3cccnc23)C[C@H](C)O1 [Compound 59]", "data-value": 92.4}
{"compound": "CC(C)(C)OP(=O)(OCOc1ccc([N+](=O)[O-])c2cccnc12)OC(C)(C)C [Compound 70]", "data-value": 72.9}
